Molecular target: UniProt P31751
Sequence (P31751 whole entry): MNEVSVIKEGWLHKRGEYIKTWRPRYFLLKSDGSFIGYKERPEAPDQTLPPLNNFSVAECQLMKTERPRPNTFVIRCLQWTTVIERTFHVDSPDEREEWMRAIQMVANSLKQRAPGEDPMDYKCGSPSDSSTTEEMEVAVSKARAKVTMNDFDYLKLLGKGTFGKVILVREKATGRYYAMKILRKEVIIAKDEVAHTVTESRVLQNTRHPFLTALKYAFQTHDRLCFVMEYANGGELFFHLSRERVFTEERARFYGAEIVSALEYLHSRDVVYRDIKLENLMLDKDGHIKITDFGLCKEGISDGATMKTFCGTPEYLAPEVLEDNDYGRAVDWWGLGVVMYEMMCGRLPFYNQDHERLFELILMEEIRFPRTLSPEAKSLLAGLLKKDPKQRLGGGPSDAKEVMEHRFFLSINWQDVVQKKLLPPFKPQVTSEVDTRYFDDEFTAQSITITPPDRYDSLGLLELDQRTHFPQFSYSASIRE
Test: Live cell target engagement (NanoBRET) in HEK293 cells
Type: cell-based
Details: HEK293, 2 hours at 37° C.
pIC50: −log10 of the molar value.
// values below are reported pIC50

{"ITEM_SMILES": "Nc1ncccc1-c1nc2ccc(-c3ccccc3)nc2n1-c1ccc(CNC(=O)c2cc(F)c(O)c(C=O)c2)cc1", "pIC50": "6.30 to 7.00"}
{"ITEM_SMILES": "Nc1ncccc1-c1nc2cccnc2n1-c1ccc(CCC(=O)Nc2ccc(C=O)c(O)c2)cc1", "pIC50": "< 6.30"}
{"ITEM_SMILES": "Nc1ncccc1-c1nc2cccnc2n1-c1ccc(CNC(=O)c2cc(C=O)c(O)cn2)cc1", "pIC50": "< 6.30"}
{"ITEM_SMILES": "Nc1ncccc1-c1nc2ccc(-c3ccccc3)nc2n1-c1ccc(CNC(=O)C2(c3ccc(C=O)c(O)c3F)CC2)cc1", "pIC50": "< 6.30"}
{"ITEM_SMILES": "CC(=O)Nc1cccc(-c2ccc3nc(-c4cccnc4N)n(-c4ccc(CNCCc5ccc(C=O)c(O)c5)cc4)c3n2)c1", "pIC50": "6.30 to 7.00"}
{"ITEM_SMILES": "Nc1ncccc1-c1nc2ccc(-c3ccccc3)nc2n1-c1ccc(CNc2cc(-c3ccc(C=O)c(O)c3)ccn2)cc1", "pIC50": "< 6.30"}
{"ITEM_SMILES": "Nc1ncccc1-c1nc2ccc(-c3ccccc3)nc2n1-c1ccc(NC(=O)CCc2ccc(C=O)c(O)c2)cc1", "pIC50": "6.30 to 7.00"}
